Across several publications, the following IC50 results were reported for 15-hydroxyprostaglandin dehydrogenase [NAD(+)] (Homo sapiens).
Assay Readout: IC50 (nM)

O=C1NC(=O)/C(=C/c2ccc(OCC3CCCCC3)cc2)S1 | 217
O=C1NC(=O)/C(=C/c2cccc(OCCC3CCCCC3)c2Cl)S1 | 17.9
O=C1NC(=O)/C(=C/c2ccc(OCCN3CCS(=O)(=O)CC3)cc2)S1 | 1370
O=C1NC(=O)/C(=C/c2cccc(OC3CCCCC3)c2Cl)S1 | 212

A = O=C1NC(=O)C(Cc2ccc(OCCC3CCCCC3)c(Cl)c2)S1 (stereo not shown)
B = CC1CCC(COc2ccc(/C=C3\SC(=O)NC3=O)cc2)CC1 (stereo not shown)
Input pair: A , B . Output: entry with lower IC50. Write the label of whichever entry you select.
B
(B: 66.4 nM, A: 173 nM)

A = O=C1NC(=O)/C(=C/c2ccc(OCCC3CCCCC3)cc2)S1
B = O=C1NC(=O)/C(=C/c2ccc(OC3CCCCC3)cc2Cl)S1
Determine, for A and B , which has the greater value of IC50. Write the label of whichever entry you select.
B
(B: 233 nM, A: 50.9 nM)

a = O=C(CSc1nc2ccccc2s1)NC1CCCC1
b = O=C(CCCC1CCCCC1)Oc1ccc(/C=C2\SC(=O)NC2=O)cc1Br
c = O=C1NC(=O)/C(=C/c2ccc(OCCC3CCCCC3)c([N+](=O)[O-])c2)S1
d = O=C(CCC1CCCC1)Oc1ccc(/C=C2\SC(=O)NC2=O)cc1
e = COc1ccc(/C=C2\SC(=O)NC2=O)c(Cl)c1OCCC1CCCCC1
Please order the records by their reported IC50, lowest number first. Dear reader, please state the labels in the requested order.
b, d, c, e, a
(b: 15.4 nM, d: 23.2 nM, c: 59.5 nM, e: 110 nM, a: 5000 nM)

I = O=C(CCC1CCCC1)Oc1ccc(/C=C2\SC(=O)NC2=O)cc1Cl
II = CC1CCC(COc2cccc(/C=C3\SC(=O)NC3=O)c2Cl)CC1 (stereo not shown)
III = O=C1NC(=O)/C(=C/c2ccc(OCc3cccs3)cc2)S1
Please order the records by their reported IC50, lowest number first. Dear reader, please state the labels in the requested order.
I, II, III
(I: 30.5 nM, II: 135 nM, III: 251 nM)

a = O=C(CC1CCCCC1)Oc1ccc(/C=C2\SC(=O)NC2=O)cc1
b = O=C1NC(=O)/C(=C/c2ccc(OCc3ccc(CCl)cc3)cc2)S1
Input pair: a , b . Output: entry with lower IC50. Write the label of whichever entry you select.
a
